- TESTED TARGET: T1, human CD40-Fc protein (human, UniProt P25942 21-193)
- T1 construct: also called human CD40-Fc fusion protein; CD40-Fc antigen; not shown: Fc part
- T1 sequence (P25942 21-193 limits assumed): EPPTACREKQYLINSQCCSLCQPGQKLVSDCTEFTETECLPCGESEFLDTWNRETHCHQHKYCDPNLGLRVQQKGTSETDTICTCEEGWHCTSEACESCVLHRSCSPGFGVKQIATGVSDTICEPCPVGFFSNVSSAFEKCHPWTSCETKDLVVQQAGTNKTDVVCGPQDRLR
- PROTOCOL: BLI (ForteBio), IgG on AHQ sensor, 100 nM CD40-Fc in solution, bivalent, 1:1 model
ENDPOINT: pKd
Convention used: pKd is expressed as -log10 of the molar concentration.

Exercise: Reported pKd for ADI-55145 (antibody, human IgG1, kappa, V domains shown) VH: QVQLVESGGGVVQPGRSLRLSCAASGFTFEKYGMHWVRQAPGKGLEWVAVISYEGTSKYYADSVKGRFTISRDNSKNTLYLQMNSLRAEDTAVYYCARDTSRGHDIWGQGTMVTVSS VL: EIVLTQSPGTLSLSPGERATLSCQASQSVSYNYLAWYQQKPGQAPRLLIYGASSRNNGIPDRFSGSGSGTDFTLTISRLEPEDFAVYYCQQYSDYPPFTFGGGTKVEIKR : what is it?
Solution: 9.77

Exercise: Find the recorded pKd belonging to ADI-55140 (antibody, human IgG1, kappa, V domains shown) VH: QVQLVESGGGVVQPGRSLRLSCAASGFTFEKYGMHWVRQAPGKGLEWVAVIHYEGSIKYYADSVKGRFTISRDNSKNTLYLQMNSLRAEDTAVYYCARDTSRGHDIWGQGTMVTVSS VL: EIVLTQSPGTLSLSPGERATLSCRASQSVSYDYLAWYQQKPGQAPRLLIYGASTRANGIPDRFSGSGSGTDFTLTISRLEPEDFAVYYCGEYADYPPFTFGGGTKVEIKR and report it.
Solution: 9.77

Exercise: Sample ADI-55164 (antibody, human IgG1, kappa, V domains shown) VH: EVQLVESGGGLVQPGRSLRLSCAASGFTFDDYAMHWVRQAPGKGLEWVSGISWSSDSIHYADSVKGRFTISRDNAKNSLYLQMNSLRAEDTAVYYCAKDPTATTGARGYFDLWGRGTLVTVSS VL: DIQMTQSPSSVSASVGDRVTITCRASKVISSWLAWYQQKPGKAPKLLIYAASYLESGVPSRFSGSGSGTDFTLTISSLQPEDFATYYCQQHSSFPPTFGGGTKVEIKR — what was its pKd?
Solution: 10.00

src = patent US20260265391A1
